Test system: Rattus norvegicus
assay.remarks: Antiinflammatory activity in Wister albino rat assessed as inhibition of carrageenan-induced paw oedema at 50 mg/kg, ip administered 1 hr before carrageenan challenge measured after 4 hrs of induction of inflammation relative to control
Format: functional
assay.conditions: route intraperitoneal
Please enter Satisfied where inhibition in vivo at 50 mg/kg is greater than or equal to 70%, and Not satisfied where it is lower.

1) CN1C/C(=C\c2ccc(F)cc2)C(=O)[C@]2(C1)[C@@H](c1ccc(F)cc1)CN(C)[C@@]21C(=O)Nc2ccccc21 : Not satisfied
2) CN1C/C(=C\c2ccc(Cl)cc2)C(=O)[C@]2(C1)[C@@H](c1ccc(Cl)cc1)CN(C)[C@@]21C(=O)N(C)c2ccccc21 : Not satisfied
3) COc1ccc(/C=C2\CN(C)C[C@@]3(C2=O)[C@@H](c2ccccc2)CN(C)[C@@]32C(=O)Nc3ccccc32)cc1 : Satisfied
4) Cc1ccc(/C=C2\CN(C)C[C@@]3(C2=O)[C@@H](c2ccc(C)cc2)CN(C)[C@@]32C(=O)Nc3ccccc32)cc1 : Not satisfied
5) CN1C/C(=C\c2ccc(Br)cc2)C(=O)[C@]2(C1)[C@@H](c1ccc(Br)cc1)CN(C)[C@@]21C(=O)Nc2ccccc21 : Not satisfied

----------
Reported growth at 10 µM values are given for each entry in this list.
Tested on: NCI-H522
assay.remarks: Antitumor activity against human NCI-H522 cells assessed as cell growth at 10 uM after 48 hrs by sulforhodamine B assay
Type: functional
assay.conditions: NCI-H522, 48 h, read-out: Activity
endpoint.name: growth at 10 µM (%)

1. COc1ccc(/C=C2\CN(C)C[C@@]3(C2=O)[C@@H](c2ccccc2)CN(C)[C@@]32C(=O)Nc3ccccc32)cc1 : 50.2
2. CN1C/C(=C\c2ccc(Cl)cc2)C(=O)[C@]2(C1)[C@@H](c1ccc(Cl)cc1)CN(C)[C@@]21C(=O)N(C)c2ccccc21 : 56.4
3. CN1C/C(=C\c2ccc(-c3cccs3)cc2)C(=O)[C@]2(C1)[C@@H](c1ccc(-c3cccs3)cc1)CN(C)[C@@]21C(=O)N(C)c2ccccc21 : 49.4
4. CN1C/C(=C\c2ccc(Cl)cc2)C(=O)[C@]2(C1)[C@@H](c1ccc(Cl)cc1)CN(C)[C@@]21C(=O)Nc2ccccc21 : 59.8

----------
Test system: HOP-62
assay.remarks: Antitumor activity against human HOP62 cells assessed as cell growth at 10 uM after 48 hrs by sulforhodamine B assay
Assay type: functional
assay.conditions: HOP-62, 48 h, read-out: Activity
Reported growth at 10 µM values are given for each entry in this list.
endpoint.name: growth at 10 µM

1. CN1C/C(=C\c2ccc(-c3cccs3)cc2)C(=O)[C@]2(C1)[C@@H](c1ccc(-c3cccs3)cc1)CN(C)[C@@]21C(=O)N(C)c2ccccc21 : 58.8%
2. COc1ccc(/C=C2\CN(C)C[C@@]3(C2=O)[C@@H](c2ccccc2)CN(C)[C@@]32C(=O)Nc3ccccc32)cc1 : 69.9%
3. CN1C/C(=C\c2ccc(Cl)cc2)C(=O)[C@]2(C1)[C@@H](c1ccc(Cl)cc1)CN(C)[C@@]21C(=O)Nc2ccccc21 : 73.6%
4. CN1C/C(=C\c2ccc(Cl)cc2)C(=O)[C@]2(C1)[C@@H](c1ccc(Cl)cc1)CN(C)[C@@]21C(=O)N(C)c2ccccc21 : 71%
